- Subject of test: Human Factor D (Homo sapiens)
- Construct: purified from human serum; purchased Complement Technology, Inc; host or cells: human serum
- Assay remarks: Human Factor D assay (Example 8)
- Type: biochemical
pIC50: −log10 of the molar value.
Measured attribute: pIC50

Entry CC(=O)c1cn(CC(=O)N2C[C@H](F)C[C@H]2C(=O)Nc2cccc(Br)n2)c2ccc(C3(N4C(=O)c5ccccc5C4=O)CC3)cc12 [Compound 81] ; pIC50 = > 6.00

Entry CC(=O)c1cn(CC(=O)N2C[C@H](F)C[C@H]2C(=O)Nc2cccc(-c3ccccc3Cl)c2F)c2cccc(C#N)c12 [Compound 97] ; pIC50 = > 6.00

Entry NC(=O)c1nn(CC(=O)N2C[C@H](F)C[C@H]2C(=O)Nc2cccc(-c3cc(OC(F)(F)F)ccc3Cl)c2F)c2ccccc12 [Compound 120] ; pIC50 = > 6.00

----------
- Subject of test: Human Factor D (Homo sapiens)
- Construct: purified from human serum; purchased Complement Technology, Inc; host or cells: human serum
- Assay remarks: Human Factor D assay (Example 8)
- Type: biochemical
- Test conditions: Table 3; Human Factor D 80 nM, substrate Z-L-Lys-SBzl; read-out: IC50 (Stars)
pIC50: −log10 of the molar value.
Measured attribute: pIC50

Entry NC(=O)c1nc(CC(=O)N2C[C@H](F)C[C@H]2C(=O)Nc2cccc(-c3ccccc3Cl)c2F)n2ccccc12 ; pIC50 = > 6.00

Entry CC(=O)c1nn(CC(=O)N2C[C@H](F)C[C@H]2C(=O)Nc2cccc(-c3cccc4nc[nH]c34)c2F)c2ccccc12 ; pIC50 = > 6.00

Entry NC(=O)c1nn(CC(=O)N2C[C@H](F)C[C@H]2C(=O)Nc2cccc(-c3ccccc3Cl)c2F)c2cc(C(=O)O)sc12 ; pIC50 = > 6.00

----------
- Subject of test: Human Factor D (Homo sapiens, UniProt P00746)
- Construct: purified from human serum; purchased Complement Technology, Inc; host or cells: human serum
- Sequence (P00746 26-253): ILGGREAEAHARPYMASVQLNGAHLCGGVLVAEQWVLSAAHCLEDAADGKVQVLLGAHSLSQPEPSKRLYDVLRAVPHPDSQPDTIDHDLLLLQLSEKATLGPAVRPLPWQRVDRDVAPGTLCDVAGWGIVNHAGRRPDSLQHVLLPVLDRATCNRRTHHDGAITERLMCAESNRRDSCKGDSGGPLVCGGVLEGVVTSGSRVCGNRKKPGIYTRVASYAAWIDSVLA
- Assay remarks: Human Factor D assay (Example 8)
- Assay type: biochemical
- Test conditions: Table 1; Human Factor D 80 nM, substrate Z-L-Lys-SBzl; read-out: IC50
Measured attribute: IC50

Entry O=C(NCc1cccc(Cl)c1F)[C@@H]1C[C@@H](F)CN1C(=O)CN1C=NS(=O)(=O)c2ccccc21 ; IC50 = > 10 µM

Entry N#Cc1cn(CC(=O)N2C[C@H](F)C[C@H]2C(=O)NCc2cccc(Cl)c2F)c2ccccc12 ; IC50 = < 1 µM

Entry CC(=O)c1cn(CC(=O)N2C[C@H](F)C[C@H]2c2nc3cc(Cl)ccc3[nH]2)c2ccccc12 ; IC50 = > 10 µM

Entry CC(=O)n1cc(NC(=O)N2C[C@H](F)C[C@H]2C(=O)NS(=O)(=O)c2cccc(Cl)c2F)c2ccccc21 ; IC50 = > 10 µM

----------
- Subject of test: Human Factor D (Homo sapiens)
- Construct: purified from human serum; purchased Complement Technology, Inc; host or cells: human serum
- Assay remarks: Human Factor D assay (Example 8)
- Type: biochemical
- Test conditions: Table 1; Human Factor D 80 nM, substrate Z-L-Lys-SBzl; read-out: IC50
pIC50: −log10 of the molar value.
Record form. Attribute: pIC50. Fill in for each entry.

Entry CC(=O)c1cn(CC(=O)N2CC[C@@H](OCC3CC3)[C@H]2C(=O)NCc2cccc(Cl)c2F)c2ccccc12 ; pIC50 = > 6.00

Entry Cc1cc2c(s1)c(C(N)=O)nn2CC(=O)N1C[C@H](F)C[C@H]1C(=O)Nc1cccc(Br)n1 ; pIC50 = > 6.00

Entry C=C(F)c1nn(CC(=O)N2C[C@H](F)C[C@H]2C(=O)NCc2cccc(Cl)c2F)c2cnccc12 ; pIC50 = > 6.00

Entry NC(=O)c1nn(CC(=O)N2C[C@H](F)C[C@H]2C(=O)Nc2cccc(Br)n2)c2ccsc12 ; pIC50 = > 6.00

Entry NC(=O)n1cc(NC(=O)N2C[C@H](F)C[C@H]2Cn2cc(-c3ccc(F)cc3)nn2)c2ccccc21 ; pIC50 = < 5.00

Entry CC(C)(C)OC(=O)N1CCc2c(n(CC(=O)N3C[C@H](F)C[C@H]3C(=O)NCc3cccc(Cl)c3F)c3ccccc23)C1 ; pIC50 = < 5.00

Entry NC(=O)c1nn(CC(=O)N2C[C@H](F)C[C@H]2C(=O)Nc2cccc(-c3c(F)cc(F)cc3Cl)n2)c2cnccc12 ; pIC50 = > 6.00

Entry CC(=O)c1cn(CC(=O)N2C[C@H](F)C[C@H]2C(=O)N(C)Cc2cccc(Cl)c2F)c2ccccc12 ; pIC50 = < 5.00

Entry NC(=O)c1nn(CC(=O)N2C[C@H](F)C[C@H]2C(=O)Nc2cccc(-c3ccccc3Cl)c2F)c2c1CCCC2 ; pIC50 = > 6.00

Entry CCOC(=O)CC(=O)N1CCc2c(n(CC(=O)N3C[C@H](F)C[C@H]3C(=O)NCc3cccc(Cl)c3F)c3ccccc23)C1 ; pIC50 = < 5.00

----------
- Subject of test: Human Factor D (Homo sapiens, UniProt P00746)
- Construct: purified from human serum; purchased Complement Technology, Inc; host or cells: human serum
- Assay remarks: Human Factor D assay (Example 8)
- Assay type: biochemical
- Test conditions: Table 1; Human Factor D 80 nM, substrate Z-L-Lys-SBzl; read-out: IC50
Record form. Attribute: IC50. Fill in for each entry.

Entry NC(=O)c1nn(CC(=O)N2[C@@H]3C[C@@H]3C[C@H]2C(=O)Nc2cccc(-c3ccccc3Cl)c2F)cc1Br [Compound 77] ; IC50 = < 1000 nM

Entry CC(=O)n1cc(NC(=O)Nc2cn(C(C)=O)c3ccccc23)c2ccccc21 [Compound 20, 1,3-bis(1-acetyl-1H-indol-3-yl)urea] ; IC50 = > 10000 nM

Entry NC(=O)c1nn(CC(=O)N2[C@@H]3C[C@@H]3C[C@H]2C(=O)NCc2cccc(Cl)c2F)c2ccsc12 [Compound 107] ; IC50 = < 1000 nM

Entry NC(=O)c1cn(CC(=O)N2C[C@H](F)C[C@H]2C(=O)Nc2cccc(-c3ccccc3Cl)c2F)c2ccsc12 [Compound 103] ; IC50 = < 1000 nM

----------
- Subject of test: Human Factor D (Homo sapiens)
- Construct: purified from human serum; purchased Complement Technology, Inc; host or cells: human serum
- Assay remarks: Human Factor D assay (Example 8)
- Assay type: biochemical
- Test conditions: Table 1; Human Factor D 80 nM, substrate Z-L-Lys-SBzl; read-out: IC50
pIC50: −log10 of the molar value.
Record form. Attribute: pIC50. Fill in for each entry.

Entry CC(=O)c1cn(CC(=O)N2C[C@H](F)C[C@H]2Cn2cc(-c3ccc(F)cc3)nn2)c2ccccc12 ; pIC50 = < 5.00

Entry O=C(O)CCC(=O)N1CCc2c(n(CC(=O)N3C[C@H](F)C[C@H]3C(=O)NCc3cccc(Cl)c3F)c3ccccc23)C1 ; pIC50 = < 5.00

Entry NC(=O)N1CC(NC(=O)[C@@H]2CCC[C@H]2C(=O)NCc2cccc(Cl)c2F)c2ccccc21 (stereo partly shown) ; pIC50 = < 5.00

Entry O=C(NCc1cccc(Cl)c1F)[C@@H]1C[C@@H](F)CN1C(=O)Cn1nc(-c2cn[nH]c2)c2ccncc21 ; pIC50 = > 6.00

Entry NC(=O)c1nn(CC(=O)N2C[C@H](F)C[C@H]2C(=O)Nc2cccc(-c3c(F)cc(F)cc3Cl)c2)c2cnccc12 ; pIC50 = > 6.00

Entry CC(=O)n1cc(NC(=O)[C@@H]2C[C@H](F)CN2C(=O)NCc2ccccc2)c2ccccc21 ; pIC50 = < 5.00

Entry NC(=O)c1nn(CC(=O)N2C[C@H](F)C[C@H]2C(=O)Nc2cccc(-c3ccccc3Cl)c2F)c2ccsc12 ; pIC50 = > 6.00

----------
- Subject of test: Human Factor D (Homo sapiens, UniProt P00746)
- Construct: purified from human serum; purchased Complement Technology, Inc; host or cells: human serum
- Assay remarks: Human Factor D assay (Example 8)
- Format: biochemical
- Test conditions: Table 1; Human Factor D 80 nM, substrate Z-L-Lys-SBzl; read-out: IC50
Record form. Attribute: IC50. Fill in for each entry.

Entry COc1ncc(-c2cn(CC(=O)N3C[C@H](F)C[C@H]3C(=O)Nc3cccc(-c4ccccc4Cl)c3F)nc2C(N)=O)cn1 [Compound 110] ; IC50 = > 10 µM

Entry N[C@@H](Cc1c[nH]c2ccccc12)C(=O)N1C[C@H](F)C[C@H]1C(=O)NCc1cccc(Cl)c1F [Compound 39] ; IC50 = > 10 µM

Entry O=C(NCc1cccc(Cl)c1F)[C@@H]1C[C@@H](F)CN1C(=O)c1csc(-c2cccnc2)n1 [Compound 50] ; IC50 = > 10 µM

Entry CC(=O)n1cc(NC(=O)[C@H]2CCCN2C(=O)NCc2cccc(Cl)c2F)c2ccccc21 [Compound 9] ; IC50 = > 10 µM

Entry CC(C)(C)OC(=O)N[C@@H](Cc1c[nH]c2ccccc12)C(=O)N1C[C@H](F)C[C@H]1C(=O)NCc1cccc(Cl)c1F [Compound 38] ; IC50 = > 10 µM

Entry O=C(NCc1cccc(Cl)c1F)[C@@H]1C[C@@H](F)CN1C(=O)Nc1cn(C(=O)C2CC2)c2ccccc12 [Compound 54] ; IC50 = < 1 µM

Entry O=C(c1cn(CC(=O)N2C[C@H](F)C[C@H]2C(=O)NCc2cccc(Cl)c2F)c2ccccc12)C1CC1 [Compound 24] ; IC50 = < 1 µM

Where do these numbers come from? They come from patent US10092584B2.
